- Tested on: Pseudoperonospora cubensis
- Test Method Notes: Cucumber Downy Mildew (PSPECU), foliar spray, percent disease control
- Format: in vivo
- Protocol Conditions: foliar, read-out: PSPECU percent control
Give pest or weed control at 200 µg/mL for every item shown.

Tell me reported pest or weed control at 200 µg/mL for "COc1ccnc(Oc2ccc(CCNc3ncnc4nccnc34)cc2)c1" , tested with Pseudoperonospora cubensis.
80 to 100%

Next entry: "c1cc(-c2nnc(Oc3ccc(CCNc4ncnc5nccnc45)cc3)s2)ccn1"
0 to 49%

Next entry: "COc1cc(CCNc2ncnc3nccnc23)ccc1Oc1cc(C#N)ccn1"
80 to 100%

Next entry: "FC(F)(F)c1ccnc(Oc2ccc(CCNc3ncnc4nccnc34)cc2)n1"
80 to 100%

Next entry: CC(Sc1ncnc2nccnc12)c1cccc(C(F)(F)F)c1 (centres unmarked)
0 to 49%

Next entry: "COc1ccc(CCNc2ncnc3nccnc23)c(F)c1"
80 to 100%

Next entry: "N#Cc1ccc(Oc2ccc(CCNc3ncnc4nccnc34)cc2)nc1"
80 to 100%

Next entry: "Cc1nc2ncnc(NCCc3ccc(Oc4cc(C(F)(F)F)ccn4)cc3)c2nc1C"
80 to 100%

Next entry: "Fc1cnc(C(F)(F)F)c(F)c1Oc1cccc(CCNc2ncnc3nccnc23)c1"
0 to 49%

Next entry: "N#Cc1cc2ccccc2nc1Oc1ccc(CCNc2ncnc3nccnc23)cc1"
50 to 79%

Next entry: CC(Nc1ncnc2nccnc12)c1ccc(O)cc1 (centres unmarked) [Compound 65, 4-[1-(Pteridin-4-ylamino)-ethyl]-phenol]
50 to 79%

Next entry: "CC(C)(C)OC(=O)N(CCc1ccc(O[Si](C)(C)C(C)(C)C)cc1)c1ncnc2nccnc12"
0 to 49%

Next entry: "N#Cc1cccc(Oc2ccc(CCNc3ncnc4nccnc34)cc2)n1"
80 to 100%

Next entry: COc1ccc(C(C)Nc2ncnc3nccnc23)cc1 (centres unmarked)
80 to 100%

Next entry: "COc1cc(C(F)(F)F)cc(Oc2ccc(CCNc3ncnc4nccnc34)cc2)n1"
80 to 100%

Next entry: "N#Cc1ccnc(Oc2ccc(OCCNc3ncnc4nccnc34)cc2)c1"
80 to 100%

Next entry: "Cc1cc(CCNc2ncnc3nccnc23)ccc1Oc1cncc(Cl)c1C#N"
80 to 100%

Next entry: "Cc1cc(Oc2cc(C(F)(F)F)ccn2)ccc1CCNc1ncnc2nccnc12"
80 to 100%

Next entry: "Cc1cc(CCNc2ncnc3nccnc23)ccc1Oc1c(F)cnc(C(F)(F)F)c1F"
80 to 100%

Next entry: "Cc1ccc(Oc2ccc(CCNc3ncnc4nccnc34)cc2)cc1"
80 to 100%

Next entry: "Fc1cccc(Oc2ccc(CCNc3ncnc4nccnc34)cc2)n1"
80 to 100%

Next entry: "c1cnc(Oc2ccc(CCNc3ncnc4nccnc34)cc2)cn1"
80 to 100%

Next entry: "COc1cc(C(F)(F)F)cc(Oc2ccc(CCNc3ncnc4nc(C)c(C)nc34)cc2)n1"
0 to 49%

Next entry: "Fc1cc(Oc2ccc(CCNc3ncnc4nccnc34)cc2)c(F)cn1"
80 to 100%

Next entry: "CCOC(=O)c1ccnc(Oc2ccc(CCNc3ncnc4nccnc34)cc2)c1"
80 to 100%

Next entry: "O=Cc1cc(C(F)(F)F)ccc1Oc1ccc(CCNc2ncnc3nccnc23)cc1"
80 to 100%

Next entry: "COc1ccc(CCNc2ncnc3nc(C)c(C)nc23)cc1"
80 to 100%

Next entry: "CC(C)(C)c1cc[n+]([O-])c(Oc2ccc(CCNc3ncnc4nccnc34)cc2)c1"
80 to 100%

Next entry: "FC(F)(F)c1ccnc(Oc2ccc(OCCNc3ncnc4nccnc34)cc2)c1"
80 to 100%

Next entry: "CC(=O)Oc1cc(CCNc2ncnc3nccnc23)ccc1Oc1cc(C(F)(F)F)ccn1"
0 to 49%

Next entry: "CCCOc1cc(CCNc2ncnc3nccnc23)ccc1Oc1cc(C(C)(F)F)ccn1"
80 to 100%

Next entry: "Cc1c(CCNc2ncnc3nccnc23)ccc(Oc2ccc(C(F)(F)F)cn2)c1C"
80 to 100%

Next entry: "Cc1cc(CCNc2ncnc3nccnc23)ccc1Oc1ccc(C(F)(F)F)cn1"
80 to 100%

Next entry: "Cc1cnc2ncnc(NCCc3ccc(Oc4nccc(C(F)(F)F)n4)cc3)c2n1"
80 to 100%

Next entry: "CC(C)Oc1cc(CCNc2ncnc3nccnc23)ccc1Oc1cc(C(F)(F)F)ccn1"
80 to 100%
